Numbers sourced from ChEMBL document CHEMBL4699517.

- measuredTarget: Phosphatidylinositol 4,5-bisphosphate 3-kinase catalytic subunit gamma isoform (Homo sapiens) (UniProt P48736)
- Sequence (P48736 whole entry, looked up, canonical isoform): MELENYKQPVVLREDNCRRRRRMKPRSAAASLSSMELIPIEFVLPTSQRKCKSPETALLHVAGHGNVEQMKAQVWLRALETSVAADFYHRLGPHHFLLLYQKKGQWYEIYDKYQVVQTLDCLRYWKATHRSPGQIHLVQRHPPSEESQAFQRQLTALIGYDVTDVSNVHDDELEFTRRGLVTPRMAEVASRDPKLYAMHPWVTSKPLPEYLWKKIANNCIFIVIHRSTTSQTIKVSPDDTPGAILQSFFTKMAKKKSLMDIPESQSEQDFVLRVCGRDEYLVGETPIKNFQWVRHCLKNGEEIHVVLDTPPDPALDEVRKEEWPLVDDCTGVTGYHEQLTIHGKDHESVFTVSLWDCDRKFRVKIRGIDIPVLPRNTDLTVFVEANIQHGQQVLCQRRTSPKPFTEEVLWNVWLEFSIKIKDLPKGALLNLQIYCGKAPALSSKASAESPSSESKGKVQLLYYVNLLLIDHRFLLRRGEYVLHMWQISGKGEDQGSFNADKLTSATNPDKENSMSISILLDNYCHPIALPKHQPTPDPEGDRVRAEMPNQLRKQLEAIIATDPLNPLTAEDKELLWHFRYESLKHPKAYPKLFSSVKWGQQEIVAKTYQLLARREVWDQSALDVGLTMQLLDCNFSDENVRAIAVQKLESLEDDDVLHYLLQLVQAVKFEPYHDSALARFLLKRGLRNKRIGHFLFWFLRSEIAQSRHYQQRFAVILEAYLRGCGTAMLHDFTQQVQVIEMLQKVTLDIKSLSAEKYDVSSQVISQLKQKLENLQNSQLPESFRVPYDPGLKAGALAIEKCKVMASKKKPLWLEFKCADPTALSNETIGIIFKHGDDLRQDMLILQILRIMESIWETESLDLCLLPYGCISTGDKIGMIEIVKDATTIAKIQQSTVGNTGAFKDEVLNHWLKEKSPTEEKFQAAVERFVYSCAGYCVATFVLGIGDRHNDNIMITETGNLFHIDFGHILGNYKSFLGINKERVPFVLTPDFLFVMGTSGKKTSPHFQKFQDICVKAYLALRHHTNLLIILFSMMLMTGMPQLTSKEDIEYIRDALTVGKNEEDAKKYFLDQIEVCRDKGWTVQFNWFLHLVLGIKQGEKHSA
- procedureSummary: Inhibition of PI3Kgamma in human SUDHL-10 cells assessed as inhibition of cell viability at 100 nM after 72 hrs by CellTiter-Glo luminescent assay
- Format: cell-based
- reportedConditions: SU-DHL-10
Activity calls are given as the source filed them. No cut-off for these calls is given here.
measurementKind: inhibition

structuresmilesstring=COC(=O)[C@@]12OC[C@]34[C@H]([C@@H](O)[C@@H]1O)[C@@]1(C)CC(=O)C(OC(=O)C[C@@H](C)N)=C(C)[C@@H]1C[C@H]3OC(=O)[C@H](OC(=O)C=C(C)C)[C@@H]24 measurementkind=inhibition recordedvalue=Active
structuresmilesstring=COC(=O)[C@@]12OC[C@]34[C@H]([C@@H](O)[C@@H]1O)[C@@]1(C)CC(=O)C(O)=C(C)[C@@H]1C[C@H]3OC(=O)[C@H](OC(=O)C=C(C)C)[C@@H]24 measurementkind=inhibition recordedvalue=Active

====

- measuredTarget: Phosphatidylinositol 4,5-bisphosphate 3-kinase catalytic subunit gamma isoform (Homo sapiens)
- procedureSummary: Inhibition of PI3Kgamma in human SUDHL-6 cells assessed as inhibition of cell viability at 100 nM after 72 hrs by CellTiter-Glo luminescent assay
- Type: cell-based
- reportedConditions: SU-DHL-6
Activity calls are given as the source filed them. The rule behind the calls is not given here.
measurementKind: inhibition

structuresmilesstring=COC(=O)[C@@]12OC[C@]34[C@H]([C@@H](O)[C@@H]1O)[C@@]1(C)CC(=O)C(OC(=O)C[C@@H](C)N)=C(C)[C@@H]1C[C@H]3OC(=O)[C@H](OC(=O)C=C(C)C)[C@@H]24 measurementkind=inhibition recordedvalue=Active
structuresmilesstring=COC(=O)[C@@]12OC[C@]34[C@H]([C@@H](O)[C@@H]1O)[C@@]1(C)CC(=O)C(OC(=O)CNC(=O)CN)=C(C)[C@@H]1C[C@H]3OC(=O)[C@H](OC(=O)C=C(C)C)[C@@H]24 measurementkind=inhibition recordedvalue=Active
structuresmilesstring=COC(=O)[C@@]12OC[C@]34[C@H]([C@@H](O)[C@@H]1O)[C@@]1(C)CC(=O)C(OC(=O)CNC(=O)CNC(=O)CN)=C(C)[C@@H]1C[C@H]3OC(=O)[C@H](OC(=O)C=C(C)C)[C@@H]24 measurementkind=inhibition recordedvalue=Active

====

- measuredTarget: Phosphatidylinositol 4,5-bisphosphate 3-kinase catalytic subunit gamma isoform (Homo sapiens) (UniProt P48736)
- procedureSummary: Inhibition of PI3Kgamma in human SUDHL-10 cells assessed as inhibition of cell viability at 100 nM after 72 hrs by CellTiter-Glo luminescent assay
- Assay type: cell-based
- reportedConditions: SU-DHL-10
The source made the active and inactive calls. The rule behind the calls is not given here.
measurementKind: inhibition

structuresmilesstring=COC(=O)[C@@]12OC[C@]34[C@H]([C@@H](O)[C@@H]1O)[C@@]1(C)CC(=O)C(OC(=O)CNC(=O)CNC(=O)CN)=C(C)[C@@H]1C[C@H]3OC(=O)[C@H](OC(=O)C=C(C)C)[C@@H]24 recordedvalue=Active
structuresmilesstring=COC(=O)[C@@]12OC[C@]34[C@H]([C@@H](O)[C@@H]1O)[C@@]1(C)CC(=O)C(OCC(=O)NCCN)=C(C)[C@@H]1C[C@H]3OC(=O)[C@H](OC(=O)C=C(C)C)[C@@H]24 recordedvalue=Active
structuresmilesstring=COC(=O)[C@@]12OC[C@]34[C@H]([C@@H](O)[C@@H]1O)[C@@]1(C)CC(=O)C(OC(=O)CNC(=O)CN)=C(C)[C@@H]1C[C@H]3OC(=O)[C@H](OC(=O)C=C(C)C)[C@@H]24 recordedvalue=Active
